Target: Androgen Receptor (Homo sapiens, UniProt P10275)
Construct: endogenous in cells; host or cells: VCaP cells
Sequence (P10275 whole entry): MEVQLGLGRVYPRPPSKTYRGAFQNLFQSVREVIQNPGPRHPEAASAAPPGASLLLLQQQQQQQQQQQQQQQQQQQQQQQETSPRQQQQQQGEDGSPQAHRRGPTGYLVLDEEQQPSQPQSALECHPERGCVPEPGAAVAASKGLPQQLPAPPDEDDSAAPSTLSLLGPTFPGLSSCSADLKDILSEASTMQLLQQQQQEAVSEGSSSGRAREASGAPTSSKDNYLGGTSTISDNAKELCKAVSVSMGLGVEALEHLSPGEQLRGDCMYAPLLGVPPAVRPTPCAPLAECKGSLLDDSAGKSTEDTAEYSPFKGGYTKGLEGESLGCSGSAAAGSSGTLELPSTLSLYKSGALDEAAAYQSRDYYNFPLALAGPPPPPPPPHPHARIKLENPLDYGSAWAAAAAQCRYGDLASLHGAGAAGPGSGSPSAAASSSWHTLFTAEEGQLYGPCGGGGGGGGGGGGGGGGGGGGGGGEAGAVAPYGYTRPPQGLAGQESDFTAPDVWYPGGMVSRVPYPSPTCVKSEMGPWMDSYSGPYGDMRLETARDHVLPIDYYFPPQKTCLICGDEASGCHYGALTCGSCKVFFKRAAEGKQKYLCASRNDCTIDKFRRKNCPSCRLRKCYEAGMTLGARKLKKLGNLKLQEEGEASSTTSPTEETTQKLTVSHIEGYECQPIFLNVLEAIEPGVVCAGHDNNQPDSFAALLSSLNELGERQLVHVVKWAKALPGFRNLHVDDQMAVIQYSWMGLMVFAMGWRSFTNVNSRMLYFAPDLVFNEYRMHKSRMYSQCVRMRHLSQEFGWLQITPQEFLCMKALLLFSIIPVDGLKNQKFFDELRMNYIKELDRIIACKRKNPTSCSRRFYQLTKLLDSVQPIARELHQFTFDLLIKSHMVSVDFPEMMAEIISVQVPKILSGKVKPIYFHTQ
Test: Androgen Receptor ELISA assay (PathScan AR ELISA) in VCaP cells: AR degradation, Dmax and DC50
Assay type: cell-based
Conditions: VCaP, VCaP cells; Table 36; read-out: VCaP Dmax (%)
Can you tell me Dmax for the items I'm about to list?

What value of Dmax has been reported for the following molecule? `Cc1ncsc1-c1ccc([C@H](C)NC(=O)[C@@H]2C[C@@H](O)CN2C(=O)[C@@H](NC(=O)CN2CCN(C3CN(c4ccc(C(=O)N[C@H]5C(C)(C)[C@H](Oc6ccc(C#N)c(Cl)c6)C5(C)C)cn4)C3)CC2)C(C)(C)C)cc1`
> 71%

Endpoint output: Dmax of `Cc1ncsc1-c1ccc([C@H](C)NC(=O)[C@@H]2C[C@@H](O)CN2C(=O)[C@@H](NC(=O)CCCCc2ccc(C(=O)N[C@H]3C(C)(C)[C@H](Oc4ccc(C#N)c(Cl)c4)C3(C)C)cc2)C(C)(C)C)cc1` . Value?
26 to 50%

Give the measured Dmax of Cc1ncsc1-c1ccc([C@H](C)NC(=O)C2C[C@@H](O)CN2C(=O)[C@@H](NC(=O)CN2C[C@@H]3C[C@H]2CN3CCCc2ccc(C(=O)N[C@H]3C(C)(C)[C@H](Oc4ccc(C#N)c(Cl)c4)C3(C)C)cc2)C(C)(C)C)cc1 (some centres unmarked) .
51 to 70%

What Dmax value was documented for this molecule, `Cc1ncsc1-c1ccc([C@H](C)NC(=O)[C@@H]2C[C@@H](O)CN2C(=O)[C@@H](NC(=O)CN2CCN(CCCc3ccc(C(=O)N[C@H]4C(C)(C)[C@H](Oc5ccc(C#N)c(C(F)(F)F)c5)C4(C)C)cc3)CC2)C(C)(C)C)cc1` ?
51 to 70%

What Dmax value was documented for this molecule, `Cc1ncsc1-c1ccc([C@H](C)NC(=O)[C@@H]2C[C@@H](O)CN2C(=O)[C@@H](NC(=O)COCCN2CCN(Cc3cc(C(=O)N[C@@H](C)Cn4ccc(-c5ccc(C#N)c(Cl)c5)n4)n[nH]3)CC2)C(C)(C)C)cc1` ?
26 to 50%

Fill in: Dmax of Cc1ncsc1-c1ccc([C@H](C)NC(=O)C2C[C@@H](O)CN2C(=O)C(NC(=O)CN2CCC(OCCOc3ccc(C(=O)N[C@H]4C(C)(C)[C@H](Oc5ccc(C#N)c(Cl)c5)C4(C)C)cc3)CC2)C(C)(C)C)cc1 (some centres unmarked) is ___
> 71%

I'd like to know its Dmax. The molecule in question is Cc1ncsc1-c1ccc([C@H](C)NC(=O)[C@@H]2CC(O)CN2C(=O)[C@H](C(C)C)N2Cc3cc(OCCN4CCN(c5ccc(C(=O)N[C@H]6C(C)(C)[C@H](Oc7ccc(C#N)c(Cl)c7)C6(C)C)cn5)CC4)ccc3C2=O)cc1 (some centres unmarked)
> 71%

I have this molecule here, `Cc1ncsc1-c1ccc([C@H](CO)NC(=O)[C@@H]2C[C@@H](O)CN2C(=O)[C@@H](NC(=O)CN2CCN(CCCc3ccc(C(=O)N[C@H]4C(C)(C)[C@H](Oc5ccc(C#N)c(Cl)c5)C4(C)C)cc3)CC2)C(C)(C)C)cc1` , and I need its recorded Dmax.
> 71%

###

Target: Androgen Receptor (Homo sapiens, UniProt P10275+P40337, T878A)
Construct: Compounds have been evaluated in this assay in LNCaP and/or VCaP cells utilizing similar protocols; endogenous in cells; host or cells: LNCaP cells
Sequence (P10275 whole entry T878A): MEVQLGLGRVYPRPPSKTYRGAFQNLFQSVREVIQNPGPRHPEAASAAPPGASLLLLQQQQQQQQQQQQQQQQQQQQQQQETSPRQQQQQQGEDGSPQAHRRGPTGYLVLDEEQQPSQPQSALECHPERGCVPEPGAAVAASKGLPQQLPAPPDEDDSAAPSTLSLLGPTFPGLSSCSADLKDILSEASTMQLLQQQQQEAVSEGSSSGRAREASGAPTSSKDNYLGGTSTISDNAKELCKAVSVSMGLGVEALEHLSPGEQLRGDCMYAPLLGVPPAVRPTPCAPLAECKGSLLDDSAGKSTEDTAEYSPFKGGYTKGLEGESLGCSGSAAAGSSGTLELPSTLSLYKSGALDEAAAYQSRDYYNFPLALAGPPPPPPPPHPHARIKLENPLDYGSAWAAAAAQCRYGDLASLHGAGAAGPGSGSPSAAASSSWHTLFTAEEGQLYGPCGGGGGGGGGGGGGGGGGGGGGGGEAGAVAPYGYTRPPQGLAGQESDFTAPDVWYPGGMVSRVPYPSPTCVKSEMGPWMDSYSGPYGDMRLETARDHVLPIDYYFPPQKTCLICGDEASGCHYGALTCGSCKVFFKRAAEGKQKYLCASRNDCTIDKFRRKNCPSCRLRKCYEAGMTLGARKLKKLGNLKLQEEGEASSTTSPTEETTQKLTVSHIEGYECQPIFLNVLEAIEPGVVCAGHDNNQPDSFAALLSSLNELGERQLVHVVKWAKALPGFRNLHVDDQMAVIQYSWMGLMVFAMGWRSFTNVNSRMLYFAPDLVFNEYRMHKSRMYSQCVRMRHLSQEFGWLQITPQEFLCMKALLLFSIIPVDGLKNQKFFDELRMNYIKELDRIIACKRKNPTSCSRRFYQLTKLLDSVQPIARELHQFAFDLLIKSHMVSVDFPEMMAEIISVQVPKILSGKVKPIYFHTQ
Sequence (P40337 whole entry): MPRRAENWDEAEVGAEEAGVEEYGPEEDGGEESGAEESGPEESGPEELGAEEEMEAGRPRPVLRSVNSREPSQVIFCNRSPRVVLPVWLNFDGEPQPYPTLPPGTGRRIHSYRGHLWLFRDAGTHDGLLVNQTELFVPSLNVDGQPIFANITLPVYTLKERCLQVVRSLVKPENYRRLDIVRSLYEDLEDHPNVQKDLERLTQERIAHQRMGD
Sequence (Q15369 whole entry partner): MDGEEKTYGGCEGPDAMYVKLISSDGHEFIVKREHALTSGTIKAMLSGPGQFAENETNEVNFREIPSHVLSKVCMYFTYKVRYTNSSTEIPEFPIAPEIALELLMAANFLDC
Sequence (Q15370 whole entry partner): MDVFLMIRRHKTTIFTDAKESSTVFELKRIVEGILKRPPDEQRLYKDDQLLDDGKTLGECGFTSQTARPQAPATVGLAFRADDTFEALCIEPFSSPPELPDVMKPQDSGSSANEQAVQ
Experiment: Androgen Receptor ELISA assay (PathScan AR ELISA) in LNCaP cells: AR degradation, Dmax and DC50
Assay type: cell-based
Settings: highest percentage of Androgen Receptor degradation observed
metric: Dmax

Lab note: need Dmax with Androgen Receptor (Homo sapiens, UniProt P10275+P40337, T878A) for entry Cc1ncsc1-c1ccc(CNC(=O)[C@@H]2C[C@@H](O)CN2C(=O)[C@@H](NC(=O)COCC#CC#CCOc2ccc(N3C(=S)N(c4ccc(C#N)c(C(F)(F)F)c4)C(=O)C3(C)C)cc2)C(C)(C)C)cc1 [Example 54] , please look it up.
< 25%

Param readout= Dmax; system= Androgen Receptor (Homo sapiens, UniProt P10275+P40337, T878A); entry= Cc1ncsc1-c1ccc(CNC(=O)[C@@H]2C[C@@H](O)CN2C(=O)[C@@H](NC(=O)COCCCCCNC(=O)CCCc2ccc(N3C(=S)N(c4ccc(C#N)c(C(F)(F)F)c4)C(=O)C3(C)C)cc2)C(C)(C)C)cc1 [Example 63] ; returns value.
> 71%

Given the entry Cc1ncsc1-c1ccc(CNC(=O)[C@@H]2C[C@@H](O)CN2C(=O)[C@@H](NC(=O)COCCCOCCCCCOc2ccc(N3C(=S)N(c4ccc(C#N)c(C(F)(F)F)c4)C(=O)C3(C)C)cc2F)C(C)(C)C)cc1 [Example 3] , what Dmax was observed with Androgen Receptor (Homo sapiens, UniProt P10275+P40337, T878A)?
> 71%

Short answer please: Dmax, Androgen Receptor (Homo sapiens, UniProt P10275+P40337, T878A), entry COc1cc(N2C(=O)C(C)(C)N(c3ccc(OCCCCCOCCCOCC(=O)N[C@H](C(=O)N4C[C@H](O)C[C@H]4C(=O)NCc4ccc(-c5scnc5C)cc4)C(C)(C)C)cc3)C2=S)ccc1C#N [Example 9]
> 71%

Value wanted: Dmax (Androgen Receptor (Homo sapiens, UniProt P10275+P40337, T878A)) of entry Cc1ncsc1-c1ccc(CNC(=O)[C@@H]2C[C@@H](O)CN2C(=O)[C@@H](NC(=O)COCCCOCCCCOc2ccc(N3C(=S)N(c4cnc(C#N)c(C(F)(F)F)c4)C(=O)C3(C)C)cc2)C(C)(C)C)cc1 [Example 30]
> 71%

Tell me reported Dmax for Cc1ncsc1-c1ccc(CNC(=O)[C@@H]2C[C@@H](O)CN2C(=O)[C@@H](NC(=O)COCCCOCCCCOc2ccc(N3C(=S)N(c4ccc(C#N)c(C(F)(F)F)c4)C(=O)C3(C)C)cc2)C(C)(C)C)cc1 [Example 28] , tested with Androgen Receptor (Homo sapiens, UniProt P10275+P40337, T878A).
> 71%

Can you look up Dmax on Androgen Receptor (Homo sapiens, UniProt P10275+P40337, T878A) for Cc1ncsc1-c1ccc(CNC(=O)[C@@H]2C[C@@H](O)CN2C(=O)[C@@H](NC(=O)COCCOCCOCCOc2ccc(N3C(=O)N(c4ccc(C#N)c(C(F)(F)F)c4)C(=O)C3(C)C)cc2)C(C)(C)C)cc1 [Example 17] ?
26 to 50%

Query for Androgen Receptor (Homo sapiens, UniProt P10275+P40337, T878A): what Dmax does the record show for Cc1ncsc1-c1ccc(CNC(=O)[C@@H]2C[C@@H](O)CN2C(=O)[C@@H](NC(=O)CCOCCCCCOc2ccc(-c3ccc(N4C(=S)N(c5ccc(C#N)c(C(F)(F)F)c5)C(=O)C4(C)C)cc3)cc2)C(C)(C)C)cc1 [Example 72] ?
> 71%

// lookup Dmax | system=Androgen Receptor (Homo sapiens, UniProt P10275+P40337, T878A) | key= Cc1ncsc1-c1ccc(CNC(=O)[C@@H]2C[C@@H](O)CN2C(=O)[C@@H](NC(=O)CCCOCC#CC#CCOc2ccc(N3C(=S)N(c4ccc(C#N)c(C(F)(F)F)c4)C(=O)C3(C)C)cc2)C(C)(C)C)cc1 [Example 56]
26 to 50%
